I'd appreciate it if you could supply interaction score values for the items below.
- TESTED SYSTEM: T1, 4H2729-AA
- T1 chain: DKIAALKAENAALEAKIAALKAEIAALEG
- METHOD SUMMARY: two-hybrid library CCmax;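 note: natural log of median RNA to DNA barcode read ratio; higher means stronger binding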
- EXPERIMENTAL CONDITIONS: mean of both orientations

Fill in interaction score for record DKIAALKAEIAALEAKNAALKAEIAALEG [4H2617-AA]
2.54

For the binder DEIAALEAEIAALKAKNAALKAEIAALKG [4H122-AA] , give its reported interaction score.
0.657

Report measured interaction score; entry is DKIAALEAKIAALKAENAALKAEIAALEG [4H2393-AA]
-0.695

Give reported interaction score value for DKIAALEAEIAALEAENAALKAKIAALKG [4H2078-AA]
0.661

Give me measured interaction score, please, for this binder: DKIAALEAKNAALKAEIAALKAEIAALEG [4H2505-AA]
2.02

State, in one line, measured interaction score of DKIAALEAENAALKAKIAALEAKIAALEG [4H2277-AA]
0.856

Identify the reported interaction score for the following entry. DKIAALKAEIAALKAENAALEAEIAALKG [4H2642-AA]
-0.868

Given the binder DENAALKAKIAALKAEIAALKAENAALEG [4H1867-AA] , write its reported interaction score.
-1.46

Output measured interaction score for this item: DENAALKAEIAALKAKIAALEAENAALKG [4H1636-AA]
-1.23

Write down interaction score measured for item DENAALEAENAALEAEIAALEAEIAALEG [4H1153-AA]
0.0308

Please give measured interaction score of the following entry: DENAALKAEIAALEAEIAALKAKNAALKG [4H1552-AA]
-0.018

Give recorded interaction score. DKIAALEAKNAALEAKIAALEAEIAALKG [4H2466-AA]
0.493

Could you please provide reported interaction score for DKIAALKAEIAALEAEIAALKAKNAALEG [4H2575-AA] ? Thanks!
0.467

Tell me its interaction score given DKIAALEAENAALEAEIAALKAKIAALKG [4H2190-AA] as the entry.
2.26

Give me measured interaction score, please, for this binder: DKIAALEAEIAALKAKNAALEAKIAALEG [4H2165-AA]
-1.3

Specify reported interaction score for the binder shown: DENAALEAEIAALEAKNAALKAKIAALKG [4H1086-AA]
1.34

Using the record for DEIAALEAENAALKAKIAALKAEIAALKG [4H234-AA] , state its measured interaction score.
1.8

Determine its reported interaction score: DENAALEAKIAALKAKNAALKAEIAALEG [4H1401-AA]
0.705

Report interaction score, nothing else, for this binder: DENAALEAKIAALEAKIAALKAENAALKG [4H1324-AA]
-1.35
